Target System: Cyclin-dependent kinase 5/CDK5 activator 1 (Homo sapiens, UniProt Q00535)
Sequence (Q00535 whole entry): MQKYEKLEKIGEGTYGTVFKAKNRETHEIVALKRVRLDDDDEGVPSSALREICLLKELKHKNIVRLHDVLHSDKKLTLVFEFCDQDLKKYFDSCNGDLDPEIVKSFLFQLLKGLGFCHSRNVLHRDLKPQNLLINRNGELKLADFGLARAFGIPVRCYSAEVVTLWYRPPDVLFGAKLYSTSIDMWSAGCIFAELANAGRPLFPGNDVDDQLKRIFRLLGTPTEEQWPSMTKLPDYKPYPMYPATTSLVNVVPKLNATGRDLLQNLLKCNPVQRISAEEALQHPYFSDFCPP
Sequence (Q15078 whole entry, further chain): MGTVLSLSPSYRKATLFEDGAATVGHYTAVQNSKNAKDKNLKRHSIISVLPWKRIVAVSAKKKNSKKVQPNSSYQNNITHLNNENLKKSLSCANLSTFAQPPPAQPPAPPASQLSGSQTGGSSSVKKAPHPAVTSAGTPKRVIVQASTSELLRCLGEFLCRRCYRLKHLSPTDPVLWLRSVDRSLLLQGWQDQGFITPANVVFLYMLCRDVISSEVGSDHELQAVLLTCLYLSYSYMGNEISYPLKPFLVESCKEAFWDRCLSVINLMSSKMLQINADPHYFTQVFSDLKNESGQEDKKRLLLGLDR
Procedure Summary: Inhibition of CDK5/P25 (unknown origin)
We begin with a simple list: items and their reported IC50.
Write down the numeric answer in nM and omit the unit.

{"Smiles Repr": "N#C/N=[N+](\\[O-])c1c(N)nc(Nc2ccc(S(=O)(=O)NCCO)cc2)nc1OCC1CCCCC1", "IC50 (nM)": 560}

// moving on: another record for IC50
Lookup: Tell us which IC50 value is on record for CNS(=O)(=O)c1ccc(Nc2nc(N)c(/[N+]([O-])=N/C#N)c(OCC3CCCCC3)n2)cc1
Found: 775
